# System: cervical cancer cells (Hela)
# METHOD_DESCRIPTION: MTS in vitro cytotoxicity assay, Hela
# Assay type: cell-based
# ASSAY_CONDITIONS: 96 h exposure, mean ± SD n = 6
Kindly supply the reported EC50 values for the records listed here.

Memo: Cc1c(C)c(C)[c-](C)c1C.F[B-](F)(F)F.[Cl-].[Rh+3].c1ccc(Cn2cc(-c3ccccn3)nn2)cc1 , reported EC50: ≥ 300 µM

Record summary for Cc1ccc(C(C)C)cc1.[Cl-].[Ru+2].c1ccc(Cn2cc(-c3ccccn3)nn2)cc1.c1ccc([B-](c2ccccc2)(c2ccccc2)c2ccccc2)cc1 : reported EC50 = 15 µM

Entry Cc1ccc(C(C)C)cc1.[Cl-].[Ru+2].c1ccc(Cn2cc(-c3ccccn3)nn2)nc1.c1ccc([B-](c2ccccc2)(c2ccccc2)c2ccccc2)cc1 ; EC50 = 26 µM

* * *

# System: cervical cancer cells (Hela)
# METHOD_DESCRIPTION: MTS in vitro cytotoxicity assay, Hela
# Assay type: cell-based
# ASSAY_CONDITIONS: 96 h exposure, mean ± SD n = 6
pEC50: −log10 of the molar value.
EXPERIMENTAL_ENDPOINT: pEC50

Entry Cc1ccc(C(C)C)cc1.F[B-](F)(F)F.[Cl-].[Ru+2].c1ccc(Cn2cc(-c3ccccn3)nn2)nc1 — recorded pEC50 = 3.41

Data point: Cc1ccc(C(C)C)cc1.F[B-](F)(F)F.[Cl-].[Os+2].c1ccc(Cn2cc(-c3ccccn3)nn2)cc1 ; pEC50 = < 3.30

For Cc1c(C)c(C)[c-](C)c1C.F[B-](F)(F)F.[Cl-].[Ir+3].c1ccc(Cn2cc(-c3ccccn3)nn2)nc1 the molecule record lists pEC50 as 5.60

response.value for Cc1c(C)c(C)[c-](C)c1C.F[B-](F)(F)F.[Cl-].[Ir+3].c1ccc(Cn2cc(-c3ccccn3)nn2)cc1 (field: pEC50) = < 3.30

// sample CC(=O)OC[C@H]1O[C@@H]([S-])[C@H](OC(C)=O)[C@@H](OC(C)=O)[C@@H]1OC(C)=O.CCP(CC)CC.[Au+] [Auranofin, reference compound] , its pEC50 was > 5.70

// field: pEC50; key: Cc1ccc(C(C)C)cc1.F[B-](F)(F)F.[Cl-].[Ru+2].c1ccc(Cn2cc(-c3ccccn3)nn2)cc1 ; value = < 3.30
